test: Phase 1 Stage 1 clinical pharmacokinetics of SC ZA co-administered with rHuPH20; type: in vivo, human; settings: human, serum, sc, ZA 5 mg SC + 24000 U rHuPH20; mean, n=3; read-out: AUC (0-∞)
PROPERTY_LABEL: AUC(0-inf) (ng·h/mL)
API: value field is a number in ng·h/mL; no unit string.

// query I'd like to know its AUC(0-inf). The compound in question is O=P(O)(O)C(O)(Cn1ccnc1)P(=O)(O)O [ZA]
// result 662

---

assay: Phase 1 Stage 1 clinical pharmacokinetics of SC ZA co-administered with rHuPH20; assay type: in vivo, human; conditions: human, serum, sc, serum; ZA 0.25 mg SC infusion + 24000 Units rHuPH20; 8 h post infusion; n=3; read-out: Median Conc.
PROPERTY_LABEL: concentration at 8 h (ng/mL)
API: value field is a number in ng/mL; no unit string.

// query I'd like to know its concentration at 8 h. The compound in question is O=P(O)(O)C(O)(Cn1ccnc1)P(=O)(O)O
// result 0.79
